# target.system: MERTK (UniProt Q12866)
# Sequence (Q12866 whole entry, looked up): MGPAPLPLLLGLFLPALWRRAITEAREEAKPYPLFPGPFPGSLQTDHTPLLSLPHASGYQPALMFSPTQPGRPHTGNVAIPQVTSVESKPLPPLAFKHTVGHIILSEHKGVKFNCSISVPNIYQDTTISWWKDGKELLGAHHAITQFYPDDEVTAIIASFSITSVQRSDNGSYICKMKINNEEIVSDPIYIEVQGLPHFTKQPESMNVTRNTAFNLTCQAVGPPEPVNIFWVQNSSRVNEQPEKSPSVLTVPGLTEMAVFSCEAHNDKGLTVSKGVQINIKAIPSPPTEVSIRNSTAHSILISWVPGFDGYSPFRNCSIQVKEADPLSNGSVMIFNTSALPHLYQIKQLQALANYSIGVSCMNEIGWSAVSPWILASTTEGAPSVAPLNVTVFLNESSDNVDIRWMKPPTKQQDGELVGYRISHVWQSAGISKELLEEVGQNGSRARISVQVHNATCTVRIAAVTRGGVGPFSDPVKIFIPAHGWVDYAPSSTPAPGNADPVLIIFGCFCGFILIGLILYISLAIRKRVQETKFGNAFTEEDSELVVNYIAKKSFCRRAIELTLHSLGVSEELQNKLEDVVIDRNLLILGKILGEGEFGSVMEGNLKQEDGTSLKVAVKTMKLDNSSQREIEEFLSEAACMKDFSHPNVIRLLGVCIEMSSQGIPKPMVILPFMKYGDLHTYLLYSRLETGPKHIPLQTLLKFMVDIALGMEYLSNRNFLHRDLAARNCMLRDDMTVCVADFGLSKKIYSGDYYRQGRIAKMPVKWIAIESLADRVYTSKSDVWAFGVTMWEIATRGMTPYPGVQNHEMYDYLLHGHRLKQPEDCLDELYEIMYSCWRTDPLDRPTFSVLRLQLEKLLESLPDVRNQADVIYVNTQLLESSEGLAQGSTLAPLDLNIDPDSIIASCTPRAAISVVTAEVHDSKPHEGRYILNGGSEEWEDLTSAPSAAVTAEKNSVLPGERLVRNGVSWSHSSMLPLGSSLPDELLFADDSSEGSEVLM
# assay.name: phosphorylation enrichment, bacterial display (enrichment ratio); higher = better substrate or ligand; peptides without Tyr show the background
measurement.kind: phosphorylation enrichment
Numbers only.

{"columns": ["biosequence", "phosphorylation enrichment"],
 "data": [
  ["TAALWYIFSHT [ENG_Y612_YF]", 0.491],
  ["WQQQSYLDSEI [CTNNB1_Y30_G34E]", 0.377],
  ["ISIFHCAKGQP [MPZ_Y82_Y82C]", 0.62]
]}

Hi, could you look up phosphorylation enrichment for each item in my list?
1. VGTKRYMALEV [ACVRL1_Y375_P378L]
2. KKKKQYKDKFL [CASK_Y708_YF]
3. VVEYGYEFFAK [PPP1CB_Y254_D252Y]
4. LESETYRRLLD [KRT12_Y429_I426S]
5. KKFPDYIQIAR [SGMS2_Y59_M64R_YF]
6. NKPTVCGVSPN [ABL1_Y226_Y226C]
7. QKPLDYYRVNL [GALE_Y104]
8. SLMGCYNLTFM [HS6ST3_Y323_V320M]

1: 0.448; 2: 0.782; 3: 0.601; 4: 0.664; 5: 0.421; 6: 0.467; 7: 0.79; 8: 0.56

// for each sequence below, give its phosphorylation enrichment
1. DEEPPDRGPFC [SASH1_Y551_Y551D]
2. SRDDFYETIAM [NPY1R_Y347_D346Y_YF]
3. HKGASYAFRLS [PTPRD_Y891_V892A]
4. VNFGAYINFFK [GLB1_Y488_D491Y_YF]
5. LESILYESSVV [TRPV4_Y91_T89I]
6. SHNELYFEAAE [VANGL1_Y344_E347A_YF]
7. KGLKVYVNGTL [ADGRD1_Y183_E178K]
8. TDTAAYEERVR [SPTB_Y474]

1. 0.465
2. 0.826
3. 0.525
4. 0.57
5. 0.678
6. 0.543
7. 0.431
8. 1.2

Please state phosphorylation enrichment for every sequence in the list that follows.
1. QRRNVYFFSFL [PTEN_Y176_Y174N_YF]
2. HRGCLYLAIEF [TEK_Y899_Y897C_YF]
3. ESMLRYDVYGG [STOX1_Y607_E608D]
4. AGVIIYTSRFQ [PFAS_Y538_A535V]
5. RESFKYFPSSL [CXXC1_Y218_YF]

[0.5, 0.467, 0.918, 0.429, 0.421]

----------
# target.system: c-Src SH2;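 further: peptide library displayed on the E. coli surface as eCPX fusions, selected cells deep-sequenced, score is each peptide's frequency after selection divided by its frequency in the input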
# assay.name: SH2 binding enrichment of the phosphorylated peptide, bacterial display (enrichment ratio); higher = better substrate or ligand; peptides without Tyr show the background
measurement.kind: SH2 binding enrichment
Give bare numbers.

Hello, I would appreciate it if you could give SH2 binding enrichment for each entry below.
1. KEEEDYKEENN [BMS1_Y651]
2. FEEDPYLVVNP [MCM6_Y810_YF]
3. RRIFSYRGHLW [VHL_Y112_H110Y_YF]

0.499
0.507
0.498

----------
# target.system: EPHB1 (UniProt P54762)
# Sequence (P54762 whole entry, looked up): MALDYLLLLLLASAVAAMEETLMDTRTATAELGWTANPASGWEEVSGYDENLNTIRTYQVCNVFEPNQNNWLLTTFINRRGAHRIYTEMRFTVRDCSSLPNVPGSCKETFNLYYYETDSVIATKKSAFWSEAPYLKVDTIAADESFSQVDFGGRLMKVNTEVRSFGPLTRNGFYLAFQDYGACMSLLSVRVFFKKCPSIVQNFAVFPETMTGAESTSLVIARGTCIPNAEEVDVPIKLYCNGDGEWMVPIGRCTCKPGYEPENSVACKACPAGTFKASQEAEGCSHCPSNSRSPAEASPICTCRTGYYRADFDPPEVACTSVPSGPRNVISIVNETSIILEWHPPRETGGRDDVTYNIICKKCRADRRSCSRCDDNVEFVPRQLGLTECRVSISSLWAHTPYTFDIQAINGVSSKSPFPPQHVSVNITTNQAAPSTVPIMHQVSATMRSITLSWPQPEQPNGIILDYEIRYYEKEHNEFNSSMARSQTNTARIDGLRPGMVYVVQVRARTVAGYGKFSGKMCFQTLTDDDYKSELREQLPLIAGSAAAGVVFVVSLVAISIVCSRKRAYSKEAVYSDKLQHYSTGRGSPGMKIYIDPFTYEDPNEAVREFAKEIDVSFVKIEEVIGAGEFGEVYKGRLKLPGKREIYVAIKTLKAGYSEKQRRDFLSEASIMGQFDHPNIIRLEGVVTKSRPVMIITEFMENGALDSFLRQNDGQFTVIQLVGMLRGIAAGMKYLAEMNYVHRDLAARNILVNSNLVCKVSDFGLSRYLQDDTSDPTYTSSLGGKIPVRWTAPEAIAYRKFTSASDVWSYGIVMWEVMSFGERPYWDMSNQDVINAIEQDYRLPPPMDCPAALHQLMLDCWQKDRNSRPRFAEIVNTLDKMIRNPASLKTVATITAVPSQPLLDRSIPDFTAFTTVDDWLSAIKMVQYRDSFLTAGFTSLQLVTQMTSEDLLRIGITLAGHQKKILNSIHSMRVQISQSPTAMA
# assay.name: phosphorylation enrichment, bacterial display (enrichment ratio); higher = better substrate or ligand; peptides without Tyr show the background
Class yes: phosphorylation enrichment at least 0.6. Class no: phosphorylation enrichment below 0.6.

Use the examples below as a reference point.
{"columns": ["biosequence", "category.label"],
 "data": [
  ["GMEIVYVFVKK [DNAI2_Y5_YF]", "yes"],
  ["RHPEVYHHLGI [NVL_Y290_V295I]", "yes"],
  ["EDASEYYENYI [PARP4_Y214_F215Y]", "yes"]
]}

Hi team, for SDVLSYGVTMW [ZAP70_Y525_W523L] , is the recorded phosphorylation enrichment at or above 0.6?
yes

Param item: QKKPCYEIRWK [PDGFRB_Y562_R561C]
yes

And RRNVFYFSFLL [PTEN_Y177_Y174N_YF] ?
yes

Would you mind doing DTSKMYIPHTD [EXPH5_Y782] as well?
no

Next sequence: QWLEQYTQAIE [LSP1_Y234]
no

# iterate: GGDGSYVSVPS [TNNI3K_Y425]
no

----------
# target.system: Jak2 (UniProt O60674)
# Sequence (O60674 whole entry, looked up): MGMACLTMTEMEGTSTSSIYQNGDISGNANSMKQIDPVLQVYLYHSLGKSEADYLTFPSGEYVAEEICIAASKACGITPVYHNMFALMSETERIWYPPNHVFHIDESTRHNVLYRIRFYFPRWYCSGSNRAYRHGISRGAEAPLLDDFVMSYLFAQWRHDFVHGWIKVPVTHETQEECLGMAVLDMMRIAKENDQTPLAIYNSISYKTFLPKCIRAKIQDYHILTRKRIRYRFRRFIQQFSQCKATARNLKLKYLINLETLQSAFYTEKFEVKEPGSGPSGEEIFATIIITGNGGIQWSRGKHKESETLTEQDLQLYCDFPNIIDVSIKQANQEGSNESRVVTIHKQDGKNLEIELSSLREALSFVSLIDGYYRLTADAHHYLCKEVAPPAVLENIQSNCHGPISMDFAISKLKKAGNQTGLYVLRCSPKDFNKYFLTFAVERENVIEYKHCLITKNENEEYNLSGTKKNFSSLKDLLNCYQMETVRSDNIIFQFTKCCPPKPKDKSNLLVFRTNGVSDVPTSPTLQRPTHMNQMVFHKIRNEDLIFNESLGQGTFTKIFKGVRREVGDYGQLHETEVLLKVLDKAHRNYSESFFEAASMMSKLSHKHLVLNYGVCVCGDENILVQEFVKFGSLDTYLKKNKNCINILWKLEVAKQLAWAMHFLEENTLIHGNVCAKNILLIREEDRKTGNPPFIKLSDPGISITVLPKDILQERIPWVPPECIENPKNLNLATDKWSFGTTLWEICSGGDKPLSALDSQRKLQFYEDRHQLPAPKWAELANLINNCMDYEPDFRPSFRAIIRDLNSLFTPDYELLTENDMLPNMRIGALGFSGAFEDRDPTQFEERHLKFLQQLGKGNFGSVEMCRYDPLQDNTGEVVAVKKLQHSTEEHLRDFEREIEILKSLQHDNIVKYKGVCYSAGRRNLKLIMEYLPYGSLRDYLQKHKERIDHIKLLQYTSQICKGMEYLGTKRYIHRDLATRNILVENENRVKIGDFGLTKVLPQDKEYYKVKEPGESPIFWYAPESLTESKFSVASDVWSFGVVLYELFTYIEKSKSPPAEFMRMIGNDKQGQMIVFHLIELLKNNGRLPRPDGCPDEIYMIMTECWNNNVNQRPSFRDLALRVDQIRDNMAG
# assay.name: phosphorylation enrichment, bacterial display (enrichment ratio); higher = better substrate or ligand; peptides without Tyr show the background
Task for the reader: assign each of the following sequences its reported phosphorylation enrichment.
Numbers only.

Look over these answered cases.
{"columns": ["biosequence", "target.system", "measurement.kind", "measured.result"],
 "data": [
  ["AVLSLCASGRT [ACTA2_Y145_Y145C]", "Jak2 (UniProt O60674)", "phosphorylation enrichment", 0.959],
  ["RTLIRYANLGN [BEST1_Y131]", "Jak2 (UniProt O60674)", "phosphorylation enrichment", 0.793],
  ["QWLEQYTQAIE [LSP1_Y234]", "Jak2 (UniProt O60674)", "phosphorylation enrichment", 0.924],
  ["SDYYAYSPVRE [H6PD_Y449]", "Jak2 (UniProt O60674)", "phosphorylation enrichment", 11.2],
  ["ERLWDYGMSSS [F8_Y1728]", "Jak2 (UniProt O60674)", "phosphorylation enrichment", 0.778]
]}

Dear reader, for each entry below, please note its phosphorylation enrichment.
1. TLQVMYGCDVG [HLA-B_Y123_S121V]
2. VHNLDYYKQTT [FGFR3_Y647_K650Q]

1: 1.1; 2: 0.945

----------
# target.system: Hck (UniProt P08631)
# Sequence (P08631 whole entry, looked up): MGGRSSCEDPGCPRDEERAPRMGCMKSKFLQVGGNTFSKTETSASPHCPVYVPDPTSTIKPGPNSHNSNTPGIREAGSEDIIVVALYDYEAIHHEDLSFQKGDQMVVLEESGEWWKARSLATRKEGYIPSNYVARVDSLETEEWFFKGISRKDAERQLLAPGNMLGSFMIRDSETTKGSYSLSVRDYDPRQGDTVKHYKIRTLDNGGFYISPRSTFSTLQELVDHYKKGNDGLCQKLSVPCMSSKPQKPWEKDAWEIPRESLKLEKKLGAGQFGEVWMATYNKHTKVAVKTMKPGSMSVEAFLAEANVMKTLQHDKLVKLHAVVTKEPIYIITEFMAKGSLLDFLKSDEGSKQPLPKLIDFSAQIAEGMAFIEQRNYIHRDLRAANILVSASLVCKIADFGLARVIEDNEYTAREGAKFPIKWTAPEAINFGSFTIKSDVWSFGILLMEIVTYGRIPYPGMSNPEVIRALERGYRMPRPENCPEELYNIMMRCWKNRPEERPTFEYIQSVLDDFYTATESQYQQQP
# assay.name: phosphorylation enrichment, bacterial display (enrichment ratio); higher = better substrate or ligand; peptides without Tyr show the background
measurement.kind: phosphorylation enrichment
Give bare numbers.

Example cases with answers are listed next.
{"columns": ["biosequence", "measured.result"],
 "data": [
  ["WKKEIYEESST [MOCS2_Y170]", 0.488],
  ["PYSSPYENSLI [EPOR_Y489_N487S]", 0.705],
  ["LERFIYNRQEF [HLA-DPB1_Y59_E62Q_YF]", 0.77],
  ["VLTPKYRGGGG [HBA1_Y141_S139P]", 0.32],
  ["KSMSVYCTPNK [ATP2A2_Y497]", 1]
]}

For each of the items listed, what is its phosphorylation enrichment?
1. AFEQQYSPIPR [NOX1_Y373]
2. KNNDGYIDYAE [MCFD2_Y135]
3. VVIMLYGVDSR [PKD1_Y3143_G3139V]

1: 4.92; 2: 0.625; 3: 0.594

----------
Exercise: state measured phosphorylation enrichment for each of the sequences provided.
# target.system: EPHB2 (UniProt P29323)
# Sequence (P29323 whole entry, looked up): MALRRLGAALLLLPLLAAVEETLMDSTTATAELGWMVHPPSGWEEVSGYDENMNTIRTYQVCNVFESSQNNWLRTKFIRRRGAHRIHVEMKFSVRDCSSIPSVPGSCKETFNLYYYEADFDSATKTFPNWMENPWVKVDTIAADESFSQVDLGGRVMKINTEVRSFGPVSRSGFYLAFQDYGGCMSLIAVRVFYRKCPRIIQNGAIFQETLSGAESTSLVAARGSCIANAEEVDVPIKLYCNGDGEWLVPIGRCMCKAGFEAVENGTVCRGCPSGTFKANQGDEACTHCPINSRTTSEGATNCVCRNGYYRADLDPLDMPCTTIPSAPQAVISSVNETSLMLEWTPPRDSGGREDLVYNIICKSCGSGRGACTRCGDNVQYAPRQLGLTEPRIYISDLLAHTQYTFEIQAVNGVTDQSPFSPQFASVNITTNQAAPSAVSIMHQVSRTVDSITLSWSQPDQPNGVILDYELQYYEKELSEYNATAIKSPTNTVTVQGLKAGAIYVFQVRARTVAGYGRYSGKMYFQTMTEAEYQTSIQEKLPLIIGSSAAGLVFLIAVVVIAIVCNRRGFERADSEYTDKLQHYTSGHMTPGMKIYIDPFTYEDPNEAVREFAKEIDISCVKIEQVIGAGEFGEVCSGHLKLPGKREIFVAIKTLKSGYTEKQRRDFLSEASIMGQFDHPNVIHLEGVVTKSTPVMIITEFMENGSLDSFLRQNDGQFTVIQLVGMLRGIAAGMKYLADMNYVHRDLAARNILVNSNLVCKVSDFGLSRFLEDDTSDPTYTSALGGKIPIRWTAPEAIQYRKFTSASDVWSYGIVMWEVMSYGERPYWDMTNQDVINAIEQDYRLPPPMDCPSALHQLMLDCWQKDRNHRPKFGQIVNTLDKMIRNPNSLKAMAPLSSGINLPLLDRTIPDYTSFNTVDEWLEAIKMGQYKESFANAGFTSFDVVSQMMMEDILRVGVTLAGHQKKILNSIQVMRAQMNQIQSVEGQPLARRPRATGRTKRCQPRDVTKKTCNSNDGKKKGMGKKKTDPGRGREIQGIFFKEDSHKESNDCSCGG
# assay.name: phosphorylation enrichment, bacterial display (enrichment ratio); higher = better substrate or ligand; peptides without Tyr show the background
One number for each entry.

Below, 3 sequences whose answers are already recorded.
{"columns": ["biosequence", "phosphorylation enrichment"],
 "data": [
  ["RFVSRYIFNRE [HLA-DQB1_Y62_T60S_YF]", 0.744],
  ["TYEPNYGTVKR [RAPGEF6_Y1447_Q1452R]", 3.31],
  ["CSRRFYQLTKL [AR_Y858]", 0.548]
]}

Dear colleague, could you send me phosphorylation enrichment for each of the items below? Thanks.
1. PPAPRYHDSAV [LZTR1_Y119_H121D]
2. EYDRLYEEYTR [PIK3R1_Y467]
3. KELANYYKLHH [AK7_Y390]
4. SRDDFYETIAM [NPY1R_Y347_D346Y_YF]
5. GKSHIYFWTLD [EML2_Y230_E235D]

1: 0.476; 2: 7; 3: 1.89; 4: 0.68; 5: 0.523

Batch: phosphorylation enrichment for all items listed.
1. KGLKVYVNGTL [ADGRD1_Y183_E178K]
2. ESKKHYGYSLY [ANXA3_Y295_F291S]

[0.576, 0.455]

----------
# System: AncSZ
# assay.name: phosphorylation enrichment, bacterial display (enrichment ratio); higher = better substrate or ligand; peptides without Tyr show the background
Classification field: enter 1 (yes) for phosphorylation enrichment values not below 0.9, 0 (no) for values below it.

{"columns": ["biosequence", "category.label"],
 "data": [
  ["INNIDYYKNTT [FGFR2_Y656_K659N]", "0 (no)"]
]}

Hello, I need to know if QKPLDYYRVNL [GALE_Y104] has measured phosphorylation enrichment not below 0.9. Thanks!
1 (yes)

Try this sequence next: LLANAYIYVVQ [L1CAM_Y418]
1 (yes)

Try this sequence next: SLIDMYSEVPD [OPA1_Y268_L272P]
1 (yes)

Next sequence: DRLANYLEKVR [KRT40_Y103_S102N]
0 (no)

Can you check SARVRYLMAEK [LDHB_Y173_F171V] next?
0 (no)

And MPIPMYDASQA [CARMIL1_Y637] ?
0 (no)
